Taken from patent US20120270929A1.

test system: murine TTC39B mRNA; test: Antisense inhibition of murine TTC39B in mouse primary hepatocytes, single dose; assay type: cell-based; settings: 100 nM, cytofectin, ~24 h, vs untreated control; gapmers targeted to SEQ ID NO: 6
Oligonucleotides are written 5' to 3', each unit as a sugar letter and its base; * is a phosphorothioate linkage, no mark a phosphodiester; rarer units and linkages stand in square brackets, end groups in braces. Plain capitals give the bases only. e = 2'-O-(2-methoxyethyl) (MOE); [5mC] = 5-methylcytosine; d = 2'-deoxy (DNA)
% inhibition of murine TTC39B mRNA by entry:
Give your result in % as a bare value.

A selection of reference data follows.
| residue_sequence | assay_metric | readout_value |
| --- | --- | --- |
| GGCACTCTTTATATATTTGG (antisense eG*eG*e[5mC]*eA*e[5mC]*dT*d[5mC]*dT*dT*dT*dA*dT*dA*dT*dA*eT*eT*eT*eG*eG) [ISIS 447111] | % inhibition of murine TTC39B mRNA | 71 |
| GGCTCTGGGTTCAGCCCAGC (antisense eG*eG*e[5mC]*eT*e[5mC]*dT*dG*dG*dG*dT*dT*d[5mC]*dA*dG*d[5mC]*e[5mC]*e[5mC]*eA*eG*e[5mC]) [ISIS 447098] | % inhibition of murine TTC39B mRNA | 44 |
| TACAGACCATGAGCTTTGAT (antisense eT*eA*e[5mC]*eA*eG*dA*d[5mC]*d[5mC]*dA*dT*dG*dA*dG*d[5mC]*dT*eT*eT*eG*eA*eT) [ISIS 447145] | % inhibition of murine TTC39B mRNA | 61 |
| TTATACAAAAATGCCAACTC (antisense eT*eT*eA*eT*eA*d[5mC]*dA*dA*dA*dA*dA*dT*dG*d[5mC]*d[5mC]*eA*eA*e[5mC]*eT*e[5mC]) [ISIS 447129] | % inhibition of murine TTC39B mRNA | 34 |

Problem: Entry AGCATCAAATTAAAGGCCCC (antisense eA*eG*e[5mC]*eA*eT*d[5mC]*dA*dA*dA*dT*dT*dA*dA*dA*dG*eG*e[5mC]*e[5mC]*e[5mC]*e[5mC]) [ISIS 447113] : reported % inhibition of murine TTC39B mRNA = ?
Result: 59

* * *

assay: Plasma NEFA and 3-HB in C57BL/6 mice; type: in vivo, mouse; parameters: unit not given here; details: Week 3, 50 mg/kg/week
Oligonucleotides are written 5' to 3', each unit as a sugar letter and its base; * is a phosphorothioate linkage, no mark a phosphodiester; rarer units and linkages stand in square brackets, end groups in braces. Plain capitals give the bases only. e = 2'-O-(2-methoxyethyl) (MOE); [5mC] = 5-methylcytosine; d = 2'-deoxy (DNA)
assay_metric: 3-HB levels
Give the figure by itself; no unit, no explanation.

Previously resolved entries follow.
| residue_sequence | 3-HB levels |
| --- | --- |
| GCAGCTCGATTCGGGCATGA (antisense eG*e[5mC]*eA*eG*e[5mC]*dT*d[5mC]*dG*dA*dT*dT*d[5mC]*dG*dG*dG*e[5mC]*eA*eT*eG*eA) [ISIS 447118] | 111 |
| GCCACCAGTGCCTGCTGAGC (antisense eG*e[5mC]*e[5mC]*eA*e[5mC]*d[5mC]*dA*dG*dT*dG*d[5mC]*d[5mC]*dT*dG*d[5mC]*eT*eG*eA*eG*e[5mC]) [ISIS 447143] | 89 |
| CGGATGATTCTTGCTGGTAA (antisense e[5mC]*eG*eG*eA*eT*dG*dA*dT*dT*d[5mC]*dT*dT*dG*d[5mC]*dT*eG*eG*eT*eA*eA) [ISIS 447114] | 109 |

Problem: What value of measured 3-HB levels is listed for TATTTCTATAGCTCATGACA (antisense eT*eA*eT*eT*eT*d[5mC]*dT*dA*dT*dA*dG*d[5mC]*dT*d[5mC]*dA*eT*eG*eA*e[5mC]*eA) [ISIS 447144] ?
Result: 122

* * *

Reported percent inhibition of TTC39C mRNA by item:
test system: murine TTC39C mRNA; assay: Dose-dependent antisense inhibition of murine TTC39C in mouse primary hepatocytes; type: cell-based; details: 4000.0 nM, electroporation, ~16 h
Oligonucleotides are written 5' to 3', each unit as a sugar letter and its base; * is a phosphorothioate linkage, no mark a phosphodiester; rarer units and linkages stand in square brackets, end groups in braces. Plain capitals give the bases only. e = 2'-O-(2-methoxyethyl) (MOE); [5mC] = 5-methylcytosine; d = 2'-deoxy (DNA)
Entry rule: numbers only, all in %.

| substance | readout_value |
| --- | --- |
| ISIS 474518: 5-10-5 MOE gapmer antisense oligonucleotide targeting murine TTC39C (antisense eG*eT*eA*eG*eT*d[5mC]*dT*dT*dT*dA*dA*dG*dT*d[5mC]*dA*eT*e[5mC]*eG*e[5mC]*eA) | 94 |
| ISIS 474595: 5-10-5 MOE gapmer antisense oligonucleotide targeting murine TTC39C (antisense eG*eT*e[5mC]*eA*eT*d[5mC]*dG*d[5mC]*dA*d[5mC]*dG*d[5mC]*d[5mC]*dA*dA*e[5mC]*eT*eG*e[5mC]*eA) | 98 |
| ISIS 474599: 5-10-5 MOE gapmer antisense oligonucleotide targeting murine TTC39C (antisense e[5mC]*eG*eT*eT*eG*dA*dT*dG*dT*d[5mC]*d[5mC]*dA*d[5mC]*dA*dT*eA*eG*e[5mC]*eA*e[5mC]) | 84 |

Okay, next one:
Problem: Would you mind telling me what percent inhibition of TTC39C mRNA value was observed for ISIS 474604: 5-10-5 MOE gapmer antisense oligonucleotide targeting murine TTC39C (antisense eT*eG*eT*e[5mC]*eA*d[5mC]*dT*dG*d[5mC]*d[5mC]*dG*dT*d[5mC]*d[5mC]*dA*eA*eA*eG*e[5mC]*eA) ?
Result: 88

* * *

Below: a set of entries, each annotated with reported percent inhibition of TTC39B mRNA.
test system: murine TTC39B mRNA; assay: Dose-dependent antisense inhibition of murine TTC39B in mouse primary hepatocytes (Example 2); assay type: cell-based; conditions: 100 nM, cytofectin, ~16 h
Oligonucleotides are written 5' to 3', each unit as a sugar letter and its base; * is a phosphorothioate linkage, no mark a phosphodiester; rarer units and linkages stand in square brackets, end groups in braces. Plain capitals give the bases only. e = 2'-O-(2-methoxyethyl) (MOE); [5mC] = 5-methylcytosine; d = 2'-deoxy (DNA)
Report only the number, with the unit % understood.

// solved cases for percent inhibition of TTC39B mRNA follow
| residue_sequence | percent inhibition of TTC39B mRNA (%) |
| --- | --- |
| GCCAATCTAAAAATGGCTCA (antisense eG*e[5mC]*e[5mC]*eA*eA*dT*d[5mC]*dT*dA*dA*dA*dA*dA*dT*dG*eG*e[5mC]*eT*e[5mC]*eA) [ISIS 447135] | 66 |
| GGAGGTCCCCTGGCCACGGC (antisense eG*eG*eA*eG*eG*dT*d[5mC]*d[5mC]*d[5mC]*d[5mC]*dT*dG*dG*d[5mC]*d[5mC]*eA*e[5mC]*eG*eG*e[5mC]) [ISIS 447151] | 76 |
| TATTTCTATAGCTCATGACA (antisense eT*eA*eT*eT*eT*d[5mC]*dT*dA*dT*dA*dG*d[5mC]*dT*d[5mC]*dA*eT*eG*eA*e[5mC]*eA) [ISIS 447144] | 74 |
| TGTCAGTGACAGTGGCAGCT (antisense eT*eG*eT*e[5mC]*eA*dG*dT*dG*dA*d[5mC]*dA*dG*dT*dG*dG*e[5mC]*eA*eG*e[5mC]*eT) [ISIS 447159] | 76 |
| GCTCAGCTTGCAAGGGCCGC (antisense eG*e[5mC]*eT*e[5mC]*eA*dG*d[5mC]*dT*dT*dG*d[5mC]*dA*dA*dG*dG*eG*e[5mC]*e[5mC]*eG*e[5mC]) [ISIS 447127] | 84 |

Problem: What does the data say about its percent inhibition of TTC39B mRNA? Entry: TCGAAATGTTTCTTGAGCCT (antisense eT*e[5mC]*eG*eA*eA*dA*dT*dG*dT*dT*dT*d[5mC]*dT*dT*dG*eA*eG*e[5mC]*e[5mC]*eT) [ISIS 447119]
Result: 80

Problem: Name the recorded percent inhibition of TTC39B mRNA for TGAATGCTATTATTGGATCT (antisense eT*eG*eA*eA*eT*dG*d[5mC]*dT*dA*dT*dT*dA*dT*dT*dG*eG*eA*eT*e[5mC]*eT) [ISIS 447140] .
Result: 77

Problem: Value lookup for percent inhibition of TTC39B mRNA; key = AATGCCACCACCTTCAACCA (antisense eA*eA*eT*eG*e[5mC]*d[5mC]*dA*d[5mC]*d[5mC]*dA*d[5mC]*d[5mC]*dT*dT*d[5mC]*eA*eA*e[5mC]*e[5mC]*eA) [ISIS 447138]
Result: 68

Problem: Name the recorded percent inhibition of TTC39B mRNA for GGACTGCCTGCCATGGGTGC (antisense eG*eG*eA*e[5mC]*eT*dG*d[5mC]*d[5mC]*dT*dG*d[5mC]*d[5mC]*dA*dT*dG*eG*eG*eT*eG*e[5mC]) [ISIS 447146] .
Result: 78

Problem: Dear colleague, I am looking for the recorded percent inhibition of TTC39B mRNA of the following sequence: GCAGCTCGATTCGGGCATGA (antisense eG*e[5mC]*eA*eG*e[5mC]*dT*d[5mC]*dG*dA*dT*dT*d[5mC]*dG*dG*dG*e[5mC]*eA*eT*eG*eA) [ISIS 447118]
Result: 74

Problem: Could you tell me which percent inhibition of TTC39B mRNA is on file for GAGATCAGTTTCTGATGAAA (antisense eG*eA*eG*eA*eT*d[5mC]*dA*dG*dT*dT*dT*d[5mC]*dT*dG*dA*eT*eG*eA*eA*eA) [ISIS 447169] ?
Result: 65

Problem: Look up percent inhibition of TTC39B mRNA: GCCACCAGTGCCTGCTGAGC (antisense eG*e[5mC]*e[5mC]*eA*e[5mC]*d[5mC]*dA*dG*dT*dG*d[5mC]*d[5mC]*dT*dG*d[5mC]*eT*eG*eA*eG*e[5mC]) [ISIS 447143]
Result: 79

Problem: Would you kindly share the measured percent inhibition of TTC39B mRNA for GGTGGAGTCTGGCCCTCAGC (antisense eG*eG*eT*eG*eG*dA*dG*dT*d[5mC]*dT*dG*dG*d[5mC]*d[5mC]*d[5mC]*eT*e[5mC]*eA*eG*e[5mC]) [ISIS 447142] ?
Result: 85
